Molecular target: M4 muscarinic receptor (Homo sapiens, UniProt P08173)
Sequence (P08173 whole entry): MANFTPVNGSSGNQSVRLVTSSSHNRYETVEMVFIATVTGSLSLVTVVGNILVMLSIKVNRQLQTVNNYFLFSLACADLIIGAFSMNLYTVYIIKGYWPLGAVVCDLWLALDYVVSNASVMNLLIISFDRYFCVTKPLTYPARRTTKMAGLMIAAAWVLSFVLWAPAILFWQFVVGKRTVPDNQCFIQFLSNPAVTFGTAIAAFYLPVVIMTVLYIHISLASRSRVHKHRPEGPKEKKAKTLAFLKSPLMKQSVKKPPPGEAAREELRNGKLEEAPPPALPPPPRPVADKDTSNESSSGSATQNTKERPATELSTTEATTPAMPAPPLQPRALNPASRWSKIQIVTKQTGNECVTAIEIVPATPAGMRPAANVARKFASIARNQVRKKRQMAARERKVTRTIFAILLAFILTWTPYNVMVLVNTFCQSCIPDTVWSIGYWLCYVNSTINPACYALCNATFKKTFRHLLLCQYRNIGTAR
Experiment: cell-based
Conditions: read-out: % Efficacy M4
Observed property: Emax (%)

CCCCCCOc1nsnc1C1=CCCN(C)C1 | 116
C[N+](C)(C)CCOC(N)=O | 96

(a) Clc1ccc2c(c1)N=C(N1CCNCC1)c1ccccc1N2
(b) CN1CCN(C2=Nc3cc(Cl)ccc3Nc3ccccc32)CC1
Hey, which is lower on measured Emax, a or b ? Please reply using the label of the selected record.
b

* * *

Molecular target: UniProt:P11229
Sequence (P11229 whole entry): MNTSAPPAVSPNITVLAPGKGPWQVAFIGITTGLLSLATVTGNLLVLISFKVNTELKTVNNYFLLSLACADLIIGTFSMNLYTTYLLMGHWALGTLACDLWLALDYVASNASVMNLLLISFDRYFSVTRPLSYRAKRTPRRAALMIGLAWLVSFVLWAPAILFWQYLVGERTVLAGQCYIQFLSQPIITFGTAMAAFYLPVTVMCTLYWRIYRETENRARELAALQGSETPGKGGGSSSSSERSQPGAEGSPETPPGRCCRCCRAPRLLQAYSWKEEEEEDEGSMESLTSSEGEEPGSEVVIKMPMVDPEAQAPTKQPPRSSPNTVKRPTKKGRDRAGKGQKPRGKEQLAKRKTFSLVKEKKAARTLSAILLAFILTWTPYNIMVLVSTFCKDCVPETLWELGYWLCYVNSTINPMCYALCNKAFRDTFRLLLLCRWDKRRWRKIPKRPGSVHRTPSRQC
Test: cell-based
Observed property: EC50 (nM)
The answer is to be given in nM; state only the numeric part.

// query EC50 value for entry Clc1ccc2c(c1)N=C(N1CCNCC1)c1ccccc1N2
100

meta.source: patent US20040224942A1
